Where these numbers come from: ChEMBL document CHEMBL5154741

Test system: Acinetobacter baumannii
Assay: Antibacterial activity against Acinetobacter baumannii ATCC 17978 assessed as bacterial growth inhibition incubated for 18 hrs by micro-dilution broth method
Type: functional
property measured: MIC

smiles entry: N=C(NCCCCCCCCNC(=O)N(CCCCCCCCNC(=N)NCC1CC1)CCCCCCCCNC(=N)NCC1CC1)NCC1CC1.O=C(O)C(F)(F)F
MIC: 64 µg/mL
--
smiles entry: CNC(=O)N(CCCCCCCCNC(=N)NCC1CC1)CCCCCCCCNC(=N)NCC1CC1
MIC: > 128 µg/mL
--
smiles entry: CCCCCCCCN(CCCCCCCC)C(=O)N(CCCCCCCC)CCCCCCCCNC(=N)NCC1CC1.O=C(O)C(F)(F)F
MIC: > 128 µg/mL
--
smiles entry: CCCCCCN(CCCCCCCCNC(=N)NCC1CC1)C(=O)N(CCCCCCCCNC(=N)NCC1CC1)CCCCCCCCNC(=N)NCC1CC1
MIC: 8 µg/mL
--
smiles entry: CCCCCCCCN(CCCCCCCCNC(=N)NCC1CC1)C(=O)N(CCCCCCCCNC(=N)NCC1CC1)CCCCCCCCNC(=N)NCC1CC1
MIC: 4 µg/mL

Alright, here's another compound for you.
## Task Given the entry CCCCCCCCN(CCCCCCCC)C(=O)N(CCCCCCCC)CCCCCCCC , report its measured MIC.
## Result > 128 µg/mL

---

System: Cell membrane
Test: Disruption of membrane integrity in Pseudomonas aeruginosa ATCC 27853 assessed as increase in PI uptake at 16 ug/ml measured after 1 hr by SYTO9/PI staining based fluorometric analysis
Format: subcellular
Conditions: dose 16.0 µg/ml
Calls of active or inactive are those of the source. The calls are words filed in the database; no cut-off is given here.
property measured: Activity

smiles entry: N=C(N)NCCCCCCCCN(CCCCCCCCNC(=N)NCC1CC1)C(=O)N(CCCCCCCCNC(=N)NCC1CC1)CCCCCCCCNC(=N)NCC1CC1.O=C(O)C(F)(F)F
result: Active
--
smiles entry: CCCCCCCCN(CCCCCCCCNC(=N)NCC1CC1)C(=O)N(CCCCCCNC(=N)NCC1CC1)CCCCCCNC(=N)NCC1CC1
result: Active
--
smiles entry: N=C(NCCCCCCCCNC(N)=O)NCC1CC1.O=C(O)C(F)(F)F
result: Active
--
smiles entry: N=C(N)NCCCCCCCCN(CCCCCCCCNC(=N)NCC1CC1)C(=O)N(CCCCCCCCNC(=N)N)CCCCCCCCNC(=N)NCC1CC1
result: Active

Alright, here's another compound for you.
## Task Lab note: need Activity with Cell membrane for entry N=C(N)NCCCCCCCCN(CCCCCCCCN)C(=O)N(CCCCCCCCN)CCCCCCCCNC(=N)N.O=C(O)C(F)(F)F , please look it up.
## Result Active

---

Test system: Cell membrane
Assay: Disruption of membrane integrity in Staphylococcus aureus ATCC 25923 assessed as increase in PI uptake at 16 ug/ml measured after 1 hr by SYTO9/PI staining based fluorometric analysis
Details: dose 16.0 µg/ml
Activity calls are given as the source filed them. No cut-off for these calls is given here.
property measured: Activity

Recorded Activity, per entry:
smiles entry: N=C(NCCCCCCCCNC(N)=O)NCC1CC1.O=C(O)C(F)(F)F
Activity: Active
//
smiles entry: N=C(N)NCCCCCCCCN(CCCCCCCCNC(=N)NCC1CC1)C(=O)N(CCCCCCCCNC(=N)N)CCCCCCCCNC(=N)NCC1CC1
Activity: Active
//
smiles entry: N=C(N)NCCCCCCCCN(CCCCCCCCNC(=N)NCC1CC1)C(=O)N(CCCCCCCCNC(=N)NCC1CC1)CCCCCCCCNC(=N)NCC1CC1.O=C(O)C(F)(F)F
Activity: Active
//
smiles entry: N=C(N)NCCCCCCCCN(CCCCCCCCN)C(=O)N(CCCCCCCCN)CCCCCCCCNC(=N)N.O=C(O)C(F)(F)F
Activity: Active

## Task Given the entry CCCCCCCCN(CCCCCCCCNC(=N)NCC1CC1)C(=O)N(CCCCCCNC(=N)NCC1CC1)CCCCCCNC(=N)NCC1CC1 , report its measured Activity.
## Result Active
